Provenance of the data: the NIST ThermoML archive (doi:10.1021/je700662a)

Recorded molar heat capacity at constant pressure by entry
assay: molar heat capacity at constant pressure; details: 213 K; 101.33 kPa; Crystal 2; Large sample (1 g) DSC
± gives the expanded uncertainty stated by the source.

| COMPOUND | molar heat capacity at constant pressure |
| --- | --- |
| CCCCCCCCCCCCCCCC(N)=O [hexadecanamide] | 273.7 ± 4.7 J/K/mol |

Query: Assign molar heat capacity at constant pressure to the following record: CCCCCCCCCCCCCCCCCC(N)=O [octadecanamide]
Response: 328.5 ± 5.1 J/K/mol

Query: Assign molar heat capacity at constant pressure to the following record: CCCCCCCC(N)=O [octanamide]
Response: 204.6 ± 3.3 J/K/mol

Query: Assign molar heat capacity at constant pressure to the following record: CCCCC(N)=O [pentanamide]
Response: 139.1 ± 2.2 J/K/mol

Query: Assign molar heat capacity at constant pressure to the following record: CCCCCCCCCCCC(N)=O [dodecanamide]
Response: 227.1 ± 3.7 J/K/mol

Query: Assign molar heat capacity at constant pressure to the following record: CCCCCC(N)=O [hexanamide]
Response: 138.8 ± 2.2 J/K/mol
